System: 276233-004-R-J1-PDC complex spheroid viability
METHOD: Anticancer human tumor 276233-004-R-J1-PDC patient-derived colon adenocarcinoma cell line growth inhibition [GQUAD]
REPORTED CONDITIONS: second compound 0.0316 µM; first compound 0.0316 µM; stronger effect = lower value
Kindly supply the reported viability, T/C values for the records listed here.
Kindly provide the numeric value in % only, without the unit symbol.

Query: Give viability, T/C (276233-004-R-J1-PDC complex spheroid viability) of the following molecule: Cc1cccc(N(C)C(=O)C2C(O)CCN2c2nc(C)cc(C(F)(F)F)c2C#N)c1 (stereo not given) + Cc1cnc(CNC(=O)c2c(=O)c3ccc(N4CCCN(C)CC4)nc3n3c2sc2ccccc23)cn1
Result: 89.8

Query: Give viability, T/C (276233-004-R-J1-PDC complex spheroid viability) of the following molecule: CC(C)n1c(=O)n(C)c2cnc3cc(F)c(-c4ccc(OCCCN5CCCCC5)nc4)cc3c21 + CN(C)c1ccc(Nc2c3ccc(NC(=O)CCN4CCCC4)cc3nc3cc(NC(=O)CCN4CCCC4)ccc23)cc1
Result: 95.3

Query: Give viability, T/C (276233-004-R-J1-PDC complex spheroid viability) of the following molecule: CC(C)(O)C1CCC(Nc2ccc3ncc(-c4cccc(C(F)(F)F)c4)n3n2)CC1 (stereo not given) + Cc1[nH]c2ccc(F)cc2c1-c1nc2c3cccnc3c3ncccc3c2[nH]1
Result: 78.5

Query: Give viability, T/C (276233-004-R-J1-PDC complex spheroid viability) of the following molecule: CC1COCCN1c1cc(-c2ccnn2C)c2ccnc(-c3ccn[nH]3)c2n1 (stereo not given) + CN(C)c1ccc(Nc2c3ccc(NC(=O)CCN4CCCC4)cc3nc3cc(NC(=O)CCN4CCCC4)ccc23)cc1
Result: 83.7

Query: Give viability, T/C (276233-004-R-J1-PDC complex spheroid viability) of the following molecule: COc1cc(C2c3cc4c(cc3C(OC3OC5COC(C)OC5C(O)C3O)C3COC(=O)C23)OCO4)cc(OC)c1O (stereo not given) + Cc1[nH]c2ccc(F)cc2c1-c1nc2c3cccnc3c3ncccc3c2[nH]1
Result: 72.9

====

Tested on: 276233-004-R-J1-PDC complex spheroid viability
METHOD: Anticancer human tumor 276233-004-R-J1-PDC cell line growth inhibition [GQUAD];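 also: spheroids exposed to drugs for seven days; 100% = DMSO vehicle control viability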
REPORTED CONDITIONS: second compound 0.1 µM; first compound 0.0316 µM; stronger effect = lower value
Kindly supply the reported viability, T/C values for the records listed here.
Kindly provide the numeric value in % only, without the unit symbol.

Query: Give viability, T/C (276233-004-R-J1-PDC complex spheroid viability) of the following compound: CC(C)n1c(=O)n(C)c2cnc3cc(F)c(-c4ccc(OCCCN5CCCCC5)nc4)cc3c21 + CN(C)c1ccc(Nc2c3ccc(NC(=O)CCN4CCCC4)cc3nc3cc(NC(=O)CCN4CCCC4)ccc23)cc1
Result: 91.4

Query: Give viability, T/C (276233-004-R-J1-PDC complex spheroid viability) of the following compound: C=CC(=O)N1CCN(c2nc(=O)n(-c3c(C)ccnc3C(C)C)c3nc(-c4c(O)cccc4F)c(F)cc23)C(C)C1 (stereo unspecified) + CN(C)c1ccc(Nc2c3ccc(NC(=O)CCN4CCCC4)cc3nc3cc(NC(=O)CCN4CCCC4)ccc23)cc1
Result: 90

Query: Give viability, T/C (276233-004-R-J1-PDC complex spheroid viability) of the following compound: CCCS(=O)(=O)Nc1ccc(F)c(C(=O)c2c[nH]c3ncc(-c4ccc(Cl)cc4)cc23)c1F + CN(C)c1ccc(Nc2c3ccc(NC(=O)CCN4CCCC4)cc3nc3cc(NC(=O)CCN4CCCC4)ccc23)cc1
Result: 76.4

Query: Give viability, T/C (276233-004-R-J1-PDC complex spheroid viability) of the following compound: CC[C@@]1(O)C(=O)OCc2c1cc1n(c2=O)Cc2cc3c(CN(C)C)c(O)ccc3nc2-1 + Cc1cnc(CNC(=O)c2c(=O)c3ccc(N4CCCN(C)CC4)nc3n3c2sc2ccccc23)cn1
Result: 83.7

Query: Give viability, T/C (276233-004-R-J1-PDC complex spheroid viability) of the following compound: C=CC(=O)N1CCN(c2nc(=O)n(-c3c(C)ccnc3C(C)C)c3nc(-c4c(O)cccc4F)c(F)cc23)C(C)C1 (stereo unspecified) + Cc1[nH]c2ccc(F)cc2c1-c1nc2c3cccnc3c3ncccc3c2[nH]1
Result: 102

Query: Give viability, T/C (276233-004-R-J1-PDC complex spheroid viability) of the following compound: O=C(c1cc(Cc2n[nH]c(=O)c3ccccc23)ccc1F)N1CCN(C(=O)C2CC2)CC1 + Cc1[nH]c2ccc(F)cc2c1-c1nc2c3cccnc3c3ncccc3c2[nH]1
Result: 83.6

Query: Give viability, T/C (276233-004-R-J1-PDC complex spheroid viability) of the following compound: Cc1cccc(N(C)C(=O)C2C(O)CCN2c2nc(C)cc(C(F)(F)F)c2C#N)c1 (stereo unspecified) + CN(C)c1ccc(Nc2c3ccc(NC(=O)CCN4CCCC4)cc3nc3cc(NC(=O)CCN4CCCC4)ccc23)cc1
Result: 96.8

Query: Give viability, T/C (276233-004-R-J1-PDC complex spheroid viability) of the following compound: Cc1[nH]c2ccccc2c1CCNCc1ccc(/C=C/C(=O)NO)cc1 + Cc1cnc(CNC(=O)c2c(=O)c3ccc(N4CCCN(C)CC4)nc3n3c2sc2ccccc23)cn1
Result: 101

Query: Give viability, T/C (276233-004-R-J1-PDC complex spheroid viability) of the following compound: Nc1ccn(C2OC(CO)C(O)C2(F)F)c(=O)n1 (stereo unspecified) + Cc1[nH]c2ccc(F)cc2c1-c1nc2c3cccnc3c3ncccc3c2[nH]1
Result: 72.1

Query: Give viability, T/C (276233-004-R-J1-PDC complex spheroid viability) of the following compound: CCCS(=O)(=O)Nc1ccc(F)c(C(=O)c2c[nH]c3ncc(-c4ccc(Cl)cc4)cc23)c1F + Cc1cnc(CNC(=O)c2c(=O)c3ccc(N4CCCN(C)CC4)nc3n3c2sc2ccccc23)cn1
Result: 92

Query: Give viability, T/C (276233-004-R-J1-PDC complex spheroid viability) of the following compound: CC1COCCN1c1cc(C2(O)CC3CCC(C2)O3)c2cnn(-c3ccn[nH]3)c2n1 (stereo unspecified) + Cc1[nH]c2ccc(F)cc2c1-c1nc2c3cccnc3c3ncccc3c2[nH]1
Result: 74.6

====

System: 276233-004-R-J1-PDC complex spheroid viability
METHOD: Anticancer human tumor 276233-004-R-J1-PDC cell line growth inhibition [GQUAD];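 also: spheroids exposed to drugs for seven days; 100% = DMSO vehicle control viability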
REPORTED CONDITIONS: second compound 3.16 µM; first compound 1 µM; stronger effect = lower value
EXPERIMENTAL READOUT: viability, T/C (%)
Kindly provide the numeric value in % only, without the unit symbol.

Query: Give viability, T/C (276233-004-R-J1-PDC complex spheroid viability) of the following compound: O=c1[nH]cc(F)c(=O)[nH]1 + CN(C)c1ccc(Nc2c3ccc(NC(=O)CCN4CCCC4)cc3nc3cc(NC(=O)CCN4CCCC4)ccc23)cc1
Result: 57.9

Query: Give viability, T/C (276233-004-R-J1-PDC complex spheroid viability) of the following compound: O=c1[nH]cc(F)c(=O)[nH]1 + Cc1[nH]c2ccc(F)cc2c1-c1nc2c3cccnc3c3ncccc3c2[nH]1
Result: 48

Query: Give viability, T/C (276233-004-R-J1-PDC complex spheroid viability) of the following compound: COc1cc(C2c3cc4c(cc3C(OC3OC5COC(C)OC5C(O)C3O)C3COC(=O)C23)OCO4)cc(OC)c1O (stereo not drawn) + CN(C)c1ccc(Nc2c3ccc(NC(=O)CCN4CCCC4)cc3nc3cc(NC(=O)CCN4CCCC4)ccc23)cc1
Result: 56.5

====

Test system: 276233-004-R-J1-PDC complex spheroid viability
METHOD: Anticancer human tumor 276233-004-R-J1-PDC cell line growth inhibition [GQUAD]; active = viability on the fitted dose curve at most 10% of control; inactive = the rest;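 also: spheroids exposed to drugs for seven days; 100% = DMSO vehicle control viability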
REPORTED CONDITIONS: second compound 3.16 µM; first compound 1 µM
// one of active, inactive, no free text

Query: Dear all, I need the recorded test outcome for C=CCn1c(=O)c2cnc(Nc3ccc(N4CCN(C)CC4)cc3)nc2n1-c1cccc(C(C)(C)O)n1 + CN(C)c1ccc(Nc2c3ccc(NC(=O)CCN4CCCC4)cc3nc3cc(NC(=O)CCN4CCCC4)ccc23)cc1 , thank you.
Result: inactive

Query: Dear all, I need the recorded test outcome for O=C(NO)c1cnc(N2CCN(S(=O)(=O)c3ccc4ccccc4c3)CC2)nc1 + Cc1[nH]c2ccc(F)cc2c1-c1nc2c3cccnc3c3ncccc3c2[nH]1 , thank you.
Result: active

Query: Dear all, I need the recorded test outcome for Cc1cccc(N(C)C(=O)C2C(O)CCN2c2nc(C)cc(C(F)(F)F)c2C#N)c1 (stereo unspecified) + CN(C)c1ccc(Nc2c3ccc(NC(=O)CCN4CCCC4)cc3nc3cc(NC(=O)CCN4CCCC4)ccc23)cc1 , thank you.
Result: inactive

Query: Dear all, I need the recorded test outcome for CC1COCCN1c1cc(C2(O)CC3CCC(C2)O3)c2cnn(-c3ccn[nH]3)c2n1 (stereo unspecified) + Cc1[nH]c2ccc(F)cc2c1-c1nc2c3cccnc3c3ncccc3c2[nH]1 , thank you.
Result: inactive

Query: Dear all, I need the recorded test outcome for O=c1[nH]cc(F)c(=O)[nH]1 + Cc1cnc(CNC(=O)c2c(=O)c3ccc(N4CCCN(C)CC4)nc3n3c2sc2ccccc23)cn1 , thank you.
Result: inactive

Query: Dear all, I need the recorded test outcome for CC(C)(O)C1CCC(Nc2ccc3ncc(-c4cccc(C(F)(F)F)c4)n3n2)CC1 (stereo unspecified) + Cc1[nH]c2ccc(F)cc2c1-c1nc2c3cccnc3c3ncccc3c2[nH]1 , thank you.
Result: inactive
